pIC50 reference
target: Human COX-2 (Homo sapiens, UniProt P35354); construct: 500 μl of peripheral blood collected from a healthy volunteer; endogenous in cells; host or cells: human whole peripheral blood from a healthy volunteer, stimulated with LPS; assay: Inhibitory activity against human COX-2 using peripheral blood (LPS-stimulated, thromboxane B2 EIA); format: cell-based; settings: LPS 10 μg/ml, 37° C. 5 hours
Sequence (P35354 18-604): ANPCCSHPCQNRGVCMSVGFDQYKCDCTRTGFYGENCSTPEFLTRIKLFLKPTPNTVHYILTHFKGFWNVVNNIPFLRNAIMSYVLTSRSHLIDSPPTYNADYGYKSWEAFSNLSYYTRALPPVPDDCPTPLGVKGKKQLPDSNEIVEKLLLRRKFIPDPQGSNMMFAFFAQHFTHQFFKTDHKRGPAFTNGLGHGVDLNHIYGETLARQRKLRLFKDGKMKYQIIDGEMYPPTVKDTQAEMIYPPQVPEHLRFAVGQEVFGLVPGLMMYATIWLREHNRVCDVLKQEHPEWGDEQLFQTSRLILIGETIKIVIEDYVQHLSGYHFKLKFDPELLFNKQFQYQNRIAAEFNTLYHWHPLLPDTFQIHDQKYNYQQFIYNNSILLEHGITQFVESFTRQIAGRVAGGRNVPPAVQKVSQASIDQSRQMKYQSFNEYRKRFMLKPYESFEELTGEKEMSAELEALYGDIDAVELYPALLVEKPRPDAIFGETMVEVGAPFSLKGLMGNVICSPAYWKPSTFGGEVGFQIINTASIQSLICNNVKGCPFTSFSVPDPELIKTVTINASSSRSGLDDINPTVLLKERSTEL
Please note pIC50 is a logarithmic value: minus log10 of concentration in mol/L. Answer with that number alone.

{"Compound": "CS(=O)(=O)c1ccc2c(c1)cc(-c1nccs1)n2Cc1ccc(F)cc1 [Example 2]", "System Tested": "Human COX-2 (Homo sapiens, UniProt P35354)", "Meas Value": 6.30}
{"Compound": "CS(=O)(=O)c1ccc2c(c1)cc(C1CCCO1)n2Cc1ccc(F)cc1 (stereo not drawn) [Example 13]", "System Tested": "Human COX-2 (Homo sapiens, UniProt P35354)", "Meas Value": 5.40}
{"Compound": "CS(=O)(=O)c1cnc2c(c1)cc(-c1ccco1)n2Cc1ccc(F)cc1 [Example 1]", "System Tested": "Human COX-2 (Homo sapiens, UniProt P35354)", "Meas Value": 6.82}
{"Compound": "CS(=O)(=O)c1cnc2c(c1)cc(-c1ccco1)n2Cc1ccccn1 [Example 10]", "System Tested": "Human COX-2 (Homo sapiens, UniProt P35354)", "Meas Value": 5.82}
{"Compound": "Cc1ccc(-c2cc3cc(S(C)(=O)=O)cnc3n2Cc2ccc(F)cc2)o1 [Example 11]", "System Tested": "Human COX-2 (Homo sapiens, UniProt P35354)", "Meas Value": 6.70}

Return reported pIC50; argument: CS(=O)(=O)c1cnc2c(c1)cc(-c1ncccn1)n2CC1CCCCC1 [Example 7]
5.82

Return reported pIC50; argument: CS(=O)(=O)c1cnc2c(c1)cc(-c1ccco1)n2CC1CCCCC1 [Example 12]
6.82

Return reported pIC50; argument: CS(=O)(=O)c1cnc2c(c1)cc(-c1ccccn1)n2Cc1ccc(F)cc1 [Example 5]
6.40

Return reported pIC50; argument: CS(=O)(=O)c1ccc2c(c1)cc(-c1nnco1)n2Cc1ccc(F)cc1 [Example 4]
5.40

Value source: patent US6875770B2
